- experiment.description: Biodistribution study in LNCaP tumor-bearing mice (Th227 counted in organs)
- Format: in vivo, SCID mice
- test.conditions: 1 hr; 1500 kBq/kg
value.kind: Th-227 in lung (% ID Th-227/g organ)
I only need the number, in % ID Th-227/g organ, no unit after it.

Qu. Would you mind telling me what Th-227 in lung value was observed for O=C([O-])CN1CCN(CC(=O)[O-])CCN(CC(=O)NCc2ccc(C(=O)N[C@@H](Cc3ccc4ccccc4n3)C(=O)NCCCC[C@H](NC(=O)N[C@@H](CCC(=O)O)C(=O)O)C(=O)O)nc2)CCN(CC(=O)[O-])CC1.[227Th+4] [Example 34-B-227Th] ?
Ans. 2.79

Qu. Try this compound too: O=C([O-])CN1CCN(CC(=O)[O-])CCN(CC(=O)NCC2CCC(C(=O)NC(Cc3ccc4ccccc4c3)C(=O)NCCCCC(NC(=O)NC(CCC(=O)O)C(=O)O)C(=O)O)CC2)CCN(CC(=O)[O-])CC1.[227Th+4] (stereo not shown) [Example 1-B-227Th]
Ans. 2.88

Qu. Try this compound too: Cc1cc(C(=O)NCCN(CCCN(CCNC(=O)c2cc(C)n(CC(=O)O)c(=O)c2[O-])CCNC(=O)c2cc(C)n(CC(=O)NCC3CCC(C(=O)NC(Cc4cnc5ccccc5c4)C(=O)NCCCCC(NC(=O)NC(CCC(=O)O)C(=O)O)C(=O)O)CC3)c(=O)c2[O-])CCNC(=O)c2cc(C)n(CC(=O)NCC3CCC(C(=O)NC(Cc4cnc5ccccc5c4)C(=O)NCCCCC(NC(=O)NC(CCC(=O)O)C(=O)O)C(=O)O)CC3)c(=O)c2[O-])c([O-])c(=O)n1CC(=O)O.[227Th+4] (stereo not shown) [Example 22-C dimer-227Th]
Ans. 1.30

Qu. Try this compound too: O=C([O-])CN1CCN(CC(=O)[O-])CCN(CC(=O)NCC2CCC(C(=O)NC(Cc3ccc4ccccc4c3)C(=O)NCCCCC(NC(=O)NC(CCC(=O)O)C(=O)O)C(=O)O)CC2)CCN(CC(=O)[O-])CC1.[227Th+4] [Example 1-B-D-227Th]
Ans. 0.98

====

- experiment.description: Biodistribution study in LNCaP tumor-bearing mice (Th227 counted in organs)
- Format: in vivo, SCID mice
- test.conditions: 96 h; 1500 kBq/kg
- Description: SCID mice were randomly assigned to experimental groups, ten animals per group (efficacy) or n=3-5 per time point of biodistribution study. […] At the predetermined time point, n=3 animals were sacrificed, the organs removed, weight and measured in a Germanium detector to count the Th227 in the sample.
Would you mind telling me the reported Th-227 in bone of each entry?
I only need the number, in % ID Th-227/g organ, no unit after it.

Qu. Would you mind telling me what Th-227 in bone value was observed for O=C([O-])CN1CCN(CC(=O)[O-])CCN(CC(=O)NCC2CCC(C(=O)NC(Cc3ccc4ccccc4c3)C(=O)NCCCCC(NC(=O)NC(CCC(=O)O)C(=O)O)C(=O)O)CC2)CCN(CC(=O)[O-])CC1.[227Th+4] (stereo not shown) [Example 1-B-227Th] ?
Ans. 10.31

Qu. Try this compound too: Cc1cc(C(=O)NCCN(CCCN(CCNC(=O)c2cc(C)n(CC(=O)O)c(=O)c2[O-])CCNC(=O)c2cc(C)n(CC(=O)NCC3CCC(C(=O)NC(Cc4cnc5ccccc5c4)C(=O)NCCCCC(NC(=O)NC(CCC(=O)O)C(=O)O)C(=O)O)CC3)c(=O)c2[O-])CCNC(=O)c2cc(C)n(CC(=O)NCC3CCC(C(=O)NC(Cc4cnc5ccccc5c4)C(=O)NCCCCC(NC(=O)NC(CCC(=O)O)C(=O)O)C(=O)O)CC3)c(=O)c2[O-])c([O-])c(=O)n1CC(=O)O.[227Th+4] (stereo not shown) [Example 22-C dimer-227Th]
Ans. 0.83

Qu. Try this compound too: O=C([O-])CN1CCN(CC(=O)[O-])CCN(CC(=O)NCc2ccc(C(=O)N[C@@H](Cc3ccc4ccccc4n3)C(=O)NCCCC[C@H](NC(=O)N[C@@H](CCC(=O)O)C(=O)O)C(=O)O)nc2)CCN(CC(=O)[O-])CC1.[227Th+4] [Example 34-B-227Th]
Ans. 1.08

Qu. Try this compound too: O=C([O-])CN1CCN(CC(=O)[O-])CCN(CC(=O)NCC2CCC(C(=O)NC(Cc3ccc4ccccc4c3)C(=O)NCCCCC(NC(=O)NC(CCC(=O)O)C(=O)O)C(=O)O)CC2)CCN(CC(=O)[O-])CC1.[227Th+4] [Example 1-B-D-227Th]
Ans. 2.88
